system: green foxtail (Setaria viridis, SETVI); experiment: Post-emerge test, greenhouse herbicide activity screening; format: in vivo; conditions: post-emerge, 250 g ai/ha, 14 days after application, rating scale 0-100
Below, each entry is listed alongside its reported SETVI phytotoxicity rating.
attribute measured: SETVI phytotoxicity rating

[[record]]
compound = "COc1c(Cl)cc(F)c(-n2c(=O)cc(C(F)(F)F)n(C)c2=O)c1NC(=O)c1ccc2c(Br)cccc2c1 [2-158]"
reported_value = 70

[[record]]
compound = "COc1c(Cl)cc(F)c(-n2c(=O)cc(C(F)(F)F)n(N)c2=O)c1NC(=O)C=Cc1ccccc1 [2-185]"
reported_value = 20

[[record]]
compound = "COc1c(Cl)cc(F)c(-n2c(=O)cc(C(F)(F)F)n(C)c2=O)c1NC(=O)CCc1cc(C)ccc1C [2-132]"
reported_value = 60

[[record]]
compound = "COc1c(Cl)cc(F)c(-n2c(=O)cc(C(F)(F)F)n(C)c2=O)c1NC(=O)CSc1ccc2ccccc2c1 [2-169]"
reported_value = 0

[[record]]
compound = "CCSCC(=O)Nc1c(OC)c(Cl)cc(F)c1-n1c(=O)cc(C(F)(F)F)n(C)c1=O [2-172]"
reported_value = 10

[[record]]
compound = "CCOC(=O)C(C)SCC(=O)Nc1c(OC)c(Cl)cc(F)c1-n1c(=O)cc(C(F)(F)F)n(C)c1=O (centres unmarked) [2-171]"
reported_value = 10

[[record]]
compound = "COc1c(Cl)cc(F)c(-n2c(=O)cc(C(F)(F)F)n(C)c2=O)c1NC(=O)COc1ccc(Cl)cc1Cl [2-154]"
reported_value = 95

[[record]]
compound = "Cn1c(C(F)(F)F)cc(=O)n(-c2ccc(Cl)cc2NC(=O)C=Cc2ccccc2)c1=O [2-137]"
reported_value = 30

[[record]]
compound = "COc1cc2ccccc2cc1C(=O)Nc1c(OC)c(Cl)cc(F)c1-n1c(=O)cc(C(F)(F)F)n(C)c1=O [2-152]"
reported_value = 50

[[record]]
compound = "Cn1c(C(F)(F)F)cc(=O)n(-c2ccccc2NC(=O)c2ccc3ccccc3c2)c1=O [2-142]"
reported_value = 0

[[record]]
compound = "COc1c(Br)cc(F)c(-n2c(=O)cc(C(F)(F)F)n(C)c2=O)c1N(C(=O)C=Cc1ccccc1)C(=O)C=Cc1ccccc1 [2-176]"
reported_value = 0

[[record]]
compound = "Cn1c(C(F)(F)F)cc(=O)n(-c2ccc(Cl)cc2NC(=O)c2ccc3ccccc3c2)c1=O [Compound 2-131]"
reported_value = 90

[[record]]
compound = "COc1c(C#N)cc(F)c(-n2c(=O)cc(C(F)(F)F)n(C)c2=O)c1NC(=O)C=Cc1ccccc1 [2-179]"
reported_value = 55

[[record]]
compound = "C=Cc1ccc(C(=O)Nc2c(OC)c(Br)cc(F)c2-n2c(=O)cc(C(F)(F)F)n(C)c2=O)cc1 [2-182]"
reported_value = 80


====

Below, each entry is listed alongside its reported Post-emerge Herbicidal Activity SETVI (phytotoxicity rating).
tested on: green foxtail (Setaria viridis, SETVI); assay: Post-emerge test, greenhouse herbicide activity screening; assay type: in vivo; details: 63 g ai/ha; post-emerge; 14 days after application; rating scale 0-100
attribute measured: Post-emerge Herbicidal Activity SETVI (phytotoxicity rating)

[[record]]
compound = "COc1c(Cl)cc(F)c(-n2c(=O)cc(C(F)(F)F)n(C)c2=O)c1NN=CC(C)c1ccccc1 (stereo not shown)"
reported_value = 40

[[record]]
compound = "CCCOC(=O)C(Cl)Cc1c(OCC)c(Cl)cc(F)c1-n1c(=O)cc(C(F)(F)F)n(C)c1=O (stereo not shown)"
reported_value = 95

[[record]]
compound = "CCOC(=O)CC(C)=NNc1c(OC)c(Cl)cc(F)c1-n1c(=O)cc(C(F)(F)F)n(C)c1=O"
reported_value = 30

[[record]]
compound = "CCOC(=O)NNc1c(OC)c(Cl)cc(F)c1-n1c(=O)cc(C(F)(F)F)n(C)c1=O"
reported_value = 30

